Origin of measurements: patent US20250275958A1

System: TNF-α
assayProtocol: Determination of level of tumor necrosis factor (TNF-α) as cell inflammatory marker, ELISA, LPS-treated HepG2 cells
Type: cell-based
reportedConditions: Homo sapiens, 48 h of drug administration, class symbols, read-out: EC50 (activity in reducing TNF-α)
pEC50: −log10 of the molar value.
outcomeMeasure: pEC50

These solved cases illustrate the format of a correct answer.
[Q] Fill in: pEC50 of Cc1c(C(=O)O)oc2ccc(S(=O)(=O)N(CCc3ccccc3)c3ccc(Oc4ccccc4)cc3)cc12 [Example 30] is ___
[A] 4.30 to 5.00

[Q] Fill in: pEC50 of Cc1c(C(=O)O)oc2ccc(S(=O)(=O)N(CCc3ccccc3)c3ccccc3)cc12 [Example 27] is ___
[A] 4.30 to 5.00

[Q] Fill in: pEC50 of Cc1c(C(=O)O)oc2ccc(NC(=O)/C=C/c3ccccc3)cc12 [Example 17] is ___
[A] 5.00 to 8.00

[Q] Fill in: pEC50 of Cc1c(C(=O)O)oc2ccc(S(=O)(=O)N(CCc3ccccc3)Cc3ccc(C(=O)OC(C)(C)C)cc3)cc12 [Example 25] is ___
[A] 5.00 to 8.00

Continuing:
[Q] Fill in: pEC50 of Cc1c(C(=O)O)oc2ccc(S(=O)(=O)N(CCc3ccccc3)Cc3cccc4cccnc34)cc12 [Example 26] is ___
[A] 4.30 to 5.00

* * *

targetOfAssay: GPR132 (Homo sapiens)
Construct: expressed in transfected cells; host or cells: HEK293 cells (transient co-transfection)
Sequence (Q9UNW8 whole entry, species assumed): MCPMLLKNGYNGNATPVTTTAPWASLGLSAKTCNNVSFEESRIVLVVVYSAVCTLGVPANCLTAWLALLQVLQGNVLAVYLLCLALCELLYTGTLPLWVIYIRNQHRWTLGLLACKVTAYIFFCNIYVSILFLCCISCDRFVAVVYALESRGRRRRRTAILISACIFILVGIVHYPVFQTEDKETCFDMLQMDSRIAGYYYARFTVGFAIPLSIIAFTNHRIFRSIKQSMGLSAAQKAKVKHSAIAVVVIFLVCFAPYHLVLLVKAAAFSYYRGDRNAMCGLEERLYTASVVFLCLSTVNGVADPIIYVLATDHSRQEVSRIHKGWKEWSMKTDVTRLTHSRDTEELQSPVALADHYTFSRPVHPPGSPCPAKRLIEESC
assayProtocol: G protein activation (Gi BRET probes, GPR132 co-transfected in HEK293 cells)
Type: cell-based
reportedConditions: stimulated 2 minutes, class symbols, read-out: GPR132 EC50 (GPR132 agonist activity)
Experimental: Gi BRET probes were generated according to previous literature (Olsen et al., 2020), and included Gαi-RLuc8, Gβ3, and Gγ9-GFP2. GPR132 and Gi BRET probes were transiently co-transfected in HEK293 cells. […] After adding coelenterazine, the substrate of luciferase, 400a (5 μM), BRET signal was measured using a Mithras LB940 microplate reader equipped with a BRET filter set. The BRET signal was calculated as the emission light ratio at 510 nm/400 nm. […]
outcomeMeasure: EC50

[Q] Fill in: EC50 of Cc1c(C(=O)O)oc2ccc(NC(=O)[C@H]3C[C@H]3c3ccccc3)cc12 is ___
[A] 1000 to 10000 nM

[Q] Fill in: EC50 of Cc1c(C(=O)O)oc2ccc(NC(=O)CCC(=O)c3ccccc3)cc12 is ___
[A] 10 to 1000 nM

[Q] Fill in: EC50 of Cc1c(C(=O)O)oc2ccc(S(=O)(=O)N(CCc3ccccc3)c3ccccc3)cc12 is ___
[A] 1000 to 10000 nM

[Q] Fill in: EC50 of Cc1c(C(=O)O)oc2ccc(S(=O)(=O)N(CCc3ccccc3)Cc3ccc(C(=O)OC(C)(C)C)cc3)cc12 is ___
[A] 10 to 1000 nM

[Q] Fill in: EC50 of Cc1c(C(=O)O)oc2ccc(S(=O)(=O)N(CCc3ccccc3)c3ccc(N4CCN(S(C)(=O)=O)CC4)cc3)cc12 is ___
[A] 1000 to 10000 nM

* * *

Each entry below carries its recorded EC50.
System: TNF-α
assayProtocol: Determination of level of tumor necrosis factor (TNF-α) as cell inflammatory marker, ELISA, LPS-treated HepG2 cells
Format: cell-based
reportedConditions: Homo sapiens, 48 h of drug administration, class symbols, read-out: EC50 (activity in reducing TNF-α)

These solved cases illustrate the format of a correct answer.
[Q] EC50 of Cc1c(C(=O)O)oc2ccc(S(=O)(=O)N(CCc3ccccc3)c3ccc(N4CCN(S(C)(=O)=O)CC4)cc3)cc12 on TNF-α?
[A] 10 to 50 µM

[Q] EC50 of Cc1c(C(=O)O)oc2ccc(OCCCc3ccccc3)cc12 on TNF-α?
[A] 0.01 to 10 µM

[Q] EC50 of Cc1c(C(=O)O)oc2ccc(NC(=O)CCCCc3ccccc3)cc12 on TNF-α?
[A] 0.01 to 10 µM

[Q] EC50 of Cc1c(C(=O)O)oc2ccc(NC(=O)CCC(=O)c3ccccc3)cc12 on TNF-α?
[A] 0.01 to 10 µM

Query compound follows.
[Q] EC50 of Cc1c(C(=O)O)oc2ccc(NC(=O)[C@H]3C[C@H]3c3ccccc3)cc12 on TNF-α?
[A] 10 to 50 µM
